Target or system: human DNA Topo II (Homo sapiens, UniProt P11388)
Construct: purchased USB Corp., USA
Sequence (P11388 whole entry): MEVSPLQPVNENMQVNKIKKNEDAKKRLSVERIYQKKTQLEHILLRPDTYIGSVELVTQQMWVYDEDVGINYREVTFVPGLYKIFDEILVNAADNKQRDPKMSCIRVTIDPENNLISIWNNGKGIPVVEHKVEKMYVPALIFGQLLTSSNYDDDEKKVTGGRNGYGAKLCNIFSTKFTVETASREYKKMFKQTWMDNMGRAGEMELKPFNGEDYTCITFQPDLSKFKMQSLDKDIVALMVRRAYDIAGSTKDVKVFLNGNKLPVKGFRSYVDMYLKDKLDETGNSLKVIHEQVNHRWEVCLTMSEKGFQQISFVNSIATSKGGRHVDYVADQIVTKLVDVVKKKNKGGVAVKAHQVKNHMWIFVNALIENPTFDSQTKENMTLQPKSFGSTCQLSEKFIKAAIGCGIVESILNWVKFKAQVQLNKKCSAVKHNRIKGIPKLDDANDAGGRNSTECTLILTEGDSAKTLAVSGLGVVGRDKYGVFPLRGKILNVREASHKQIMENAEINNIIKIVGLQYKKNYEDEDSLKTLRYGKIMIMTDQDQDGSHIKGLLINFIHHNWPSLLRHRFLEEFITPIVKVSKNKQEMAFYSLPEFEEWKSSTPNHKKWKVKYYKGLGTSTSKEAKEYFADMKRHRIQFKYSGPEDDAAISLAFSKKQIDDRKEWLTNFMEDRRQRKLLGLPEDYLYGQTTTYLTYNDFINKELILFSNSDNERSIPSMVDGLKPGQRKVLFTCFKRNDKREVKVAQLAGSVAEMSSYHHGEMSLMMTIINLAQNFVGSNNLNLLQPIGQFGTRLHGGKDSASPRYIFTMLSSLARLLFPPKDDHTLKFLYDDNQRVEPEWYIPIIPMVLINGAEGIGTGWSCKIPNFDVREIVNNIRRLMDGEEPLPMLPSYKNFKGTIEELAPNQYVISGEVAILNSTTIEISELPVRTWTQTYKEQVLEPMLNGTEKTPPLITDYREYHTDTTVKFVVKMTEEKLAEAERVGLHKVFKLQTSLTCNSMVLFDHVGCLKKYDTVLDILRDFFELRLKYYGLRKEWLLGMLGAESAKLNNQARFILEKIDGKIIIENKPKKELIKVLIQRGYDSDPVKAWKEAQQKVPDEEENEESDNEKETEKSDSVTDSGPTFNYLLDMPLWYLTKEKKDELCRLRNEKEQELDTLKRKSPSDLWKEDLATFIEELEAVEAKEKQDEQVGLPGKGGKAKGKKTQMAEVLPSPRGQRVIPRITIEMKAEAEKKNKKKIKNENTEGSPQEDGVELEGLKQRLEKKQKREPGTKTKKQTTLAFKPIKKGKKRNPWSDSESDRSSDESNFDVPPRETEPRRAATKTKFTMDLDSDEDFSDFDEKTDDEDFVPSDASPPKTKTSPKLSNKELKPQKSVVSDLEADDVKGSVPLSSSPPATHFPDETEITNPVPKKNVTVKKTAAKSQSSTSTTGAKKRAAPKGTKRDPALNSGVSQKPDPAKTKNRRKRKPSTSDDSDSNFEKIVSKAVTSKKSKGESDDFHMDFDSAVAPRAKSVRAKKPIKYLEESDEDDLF
Assay summary: In vitro DNA Topo II-mediated relaxation assay (supercoiled pBR322)
Type: biochemical
Run conditions: means of three experiments; read-out: Topo II IC50 (µM*±SD)
Experimental readout: IC50 (µM)

Here are 3 molecules together with their reported answers.
O=C(CN1CCN(c2cc3c(cc2F)c(=O)c(C(=O)O)cn3C2CC2)CC1)NNCC(=O)c1ccc([N+](=O)[O-])cc1 [Compound 10c]    1.69
O=C(CN1CCN(c2cc3c(cc2F)c(=O)c(C(=O)O)cn3C2CC2)CC1)NNC(=O)Nc1ccc(Cl)c(C(F)(F)F)c1    2.58
O=C(CN1CCN(c2cc3c(cc2F)c(=O)c(C(=O)O)cn3C2CC2)CC1)NN=C1C(=O)Nc2ccccc21    0.74

[1] CC(=NNC(=O)CN1CCN(c2cc3c(cc2F)c(=O)c(C(=O)O)cn3C2CC2)CC1)c1ccc(Cl)cc1
[2] O=C1CC(=O)N(C(=O)CN2CCN(c3cc4c(cc3F)c(=O)c(C(=O)O)cn4C3CC3)CC2)N1
[3] COc1cccc2c1C(=O)c1c(O)c3c(c(O)c1C2=O)C[C@@](O)(C(=O)CO)C[C@@H]3O[C@H]1C[C@H](N)[C@H](O)[C@H](C)O1 [Doxorubicin, reference compound]
[4] O=C(CN1CCN(c2cc3c(cc2F)c(=O)c(C(=O)O)cn3C2CC2)CC1)NN=C1CCCCC1
Would you mind ranking these molecules by ascending IC50? Form entry: ranked labels (order as requested).
2, 3, 1, 4

---

Test system: Human bladder cancer (T-24) cell line
Assay summary: MTT cell viability assay, T-24 cells
Type: cell-based
Run conditions: bladder cancer cell line T-24, treatment for 24 h (table title), means of three experiments, read-out: IC50 (μM* ± SD) T-24
Experimental readout: IC50 (µM)

[P] CC(=NNC(=O)CN1CCN(c2cc3c(cc2F)c(=O)c(C(=O)O)cn3C2CC2)CC1)c1ccccc1O
[Q] NC(=S)NNC(=O)CN1CCN(c2cc3c(cc2F)c(=O)c(C(=O)O)cn3C2CC2)CC1
[R] O=C(CN1CCN(c2cc3c(cc2F)c(=O)c(C(=O)O)cn3C2CC2)CC1)NN=C1C(=O)Nc2cccc(Br)c21
Using the list above, order everything by rising IC50. Form entry: ranked labels (order as requested).
Q, P, R
(Q: 34.5 µM, P: 88 µM, R: 336 µM)

---

Experimental readout: melting point

Here are 10 compounds together with their reported answers.
O=C(CN1CCN(c2cc3c(cc2F)c(=O)c(C(=O)O)cn3C2CC2)CC1)NNCC(=O)c1ccc([N+](=O)[O-])cc1 [Compound 10c]    221 to 223 °C
O=C(CN1CCN(c2cc3c(cc2F)c(=O)c(C(=O)O)cn3C2CC2)CC1)NNCC(=O)c1cccc(Br)c1 [Compound 10b]    210 to 215 °C
O=C(CN1CCN(c2cc3c(cc2F)c(=O)c(C(=O)O)cn3C2CC2)CC1)NNCC(=O)c1ccccc1 [Compound 10a]    183 to 185 °C
NC(=S)NNC(=O)CN1CCN(c2cc3c(cc2F)c(=O)c(C(=O)O)cn3C2CC2)CC1    188 to 200 °C
O=C(CN1CCN(c2cc3c(cc2F)c(=O)c(C(=O)O)cn3C2CC2)CC1)NNC(=O)Nc1ccc(Cl)c(C(F)(F)F)c1    186 to 188 °C
Cc1cccc(Cl)c1NC(=O)NNC(=O)CN1CCN(c2cc3c(cc2F)c(=O)c(C(=O)O)cn3C2CC2)CC1    285 to 287 °C
O=C(CN1CCN(c2cc3c(cc2F)c(=O)c(C(=O)O)cn3C2CC2)CC1)NN=C1NC(=O)CS1    240 to 242 °C
CC(=NNC(=O)CN1CCN(c2cc3c(cc2F)c(=O)c(C(=O)O)cn3C2CC2)CC1)c1ccc(Cl)s1    286 to 288 °C
O=C(CN1CCN(c2cc3c(cc2F)c(=O)c(C(=O)O)cn3C2CC2)CC1)NN=c1[nH]c(-c2ccccc2)cs1    256 to 258 °C
N=C1CC(=O)NN1C(=O)CN1CCN(c2cc3c(cc2F)c(=O)c(C(=O)O)cn3C2CC2)CC1    181 to 183 °C

Shifting focus to the compound that follows.
Given item `CC(=NNC(=O)CN1CCN(c2cc3c(cc2F)c(=O)c(C(=O)O)cn3C2CC2)CC1)c1ccccc1O` , the value recorded as its melting point is 166 to 168 °C

---

Target or system: human DNA Topo II (Homo sapiens, UniProt P11388)
Construct: purchased USB Corp., USA
Assay summary: In vitro DNA Topo II-mediated relaxation assay (supercoiled pBR322)
Type: biochemical
Run conditions: recombinant Topo II relaxation; compound at 1 μM; read-out: Percentage of inhibition of Topo II, 1 μM
Experimental readout: inhibition at 1 µM (%)

Here are 4 molecules together with their reported answers.
O=C1CC(=O)N(C(=O)CN2CCN(c3cc4c(cc3F)c(=O)c(C(=O)O)cn4C3CC3)CC2)N1    51.9
O=C(CN1CCN(c2cc3c(cc2F)c(=O)c(C(=O)O)cn3C2CC2)CC1)NNC(=O)Nc1ccc(Cl)c(C(F)(F)F)c1    40.3
O=C(CN1CCN(c2cc3c(cc2F)c(=O)c(C(=O)O)cn3C2CC2)CC1)NNCC(=O)c1ccc([N+](=O)[O-])cc1 [Compound 10c]    37.7
O=C(CN1CCN(c2cc3c(cc2F)c(=O)c(C(=O)O)cn3C2CC2)CC1)NN=C1CCCCC1    27.9

[a] CC(=NNC(=O)CN1CCN(c2cc3c(cc2F)c(=O)c(C(=O)O)cn3C2CC2)CC1)c1ccc(Cl)cc1
[b] O=C(CN1CCN(c2cc3c(cc2F)c(=O)c(C(=O)O)cn3C2CC2)CC1)NN=C1C(=O)Nc2ccccc21
Between the two listed entries a and b , which has its inhibition at 1 µM at the higher number? Your answer should be the label of the entry you select.
b
(b: 50.3%, a: 34%)

---

Test system: Human bladder cancer (T-24) cell line
Assay summary: MTT cell viability assay, T-24 cells
Format: cell-based
Run conditions: bladder cancer cell line T-24, treatment for 24 h (table title), means of three experiments, read-out: IC50 (μM* ± SD) T-24
Experimental readout: IC50 (µM)

CC(=NNC(=O)CN1CCN(c2cc3c(cc2F)c(=O)c(C(=O)O)cn3C2CC2)CC1)c1ccc(N)cc1    25.6

[A] O=C1CC(=O)N(C(=O)CN2CCN(c3cc4c(cc3F)c(=O)c(C(=O)O)cn4C3CC3)CC2)N1
[B] O=C(CN1CCN(c2cc3c(cc2F)c(=O)c(C(=O)O)cn3C2CC2)CC1)NN1C(=O)CCC1=O
Between the two listed entries A and B , which has its IC50 at the higher number? Your answer should be the label of the entry you select.
B

---

Target or system: human DNA Topo II (Homo sapiens, UniProt P11388)
Construct: purchased USB Corp., USA
Assay summary: In vitro DNA Topo II-mediated relaxation assay (supercoiled pBR322)
Format: biochemical
Run conditions: recombinant Topo II relaxation; compound at 100 μM; read-out: Percentage of inhibition of Topo II, 100 μM
Experimental readout: inhibition at 100 µM (%)

O=C(CN1CCN(c2cc3c(cc2F)c(=O)c(C(=O)O)cn3C2CC2)CC1)NN=C1CCCCC1    83.6
CC(=NNC(=O)CN1CCN(c2cc3c(cc2F)c(=O)c(C(=O)O)cn3C2CC2)CC1)c1ccc(Cl)cc1    85.2
O=C(CN1CCN(c2cc3c(cc2F)c(=O)c(C(=O)O)cn3C2CC2)CC1)NNCC(=O)c1ccc([N+](=O)[O-])cc1 [Compound 10c]    90.2
O=C1CC(=O)N(C(=O)CN2CCN(c3cc4c(cc3F)c(=O)c(C(=O)O)cn4C3CC3)CC2)N1    87.4
O=C(CN1CCN(c2cc3c(cc2F)c(=O)c(C(=O)O)cn3C2CC2)CC1)NNC(=O)Nc1ccc(Cl)c(C(F)(F)F)c1    86.5
O=C(CN1CCN(c2cc3c(cc2F)c(=O)c(C(=O)O)cn3C2CC2)CC1)NN=C1C(=O)Nc2ccccc21    91.6

---

Target or system: human DNA Topo II (Homo sapiens)
Construct: purchased USB Corp., USA
Assay summary: In vitro DNA Topo II-mediated relaxation assay (supercoiled pBR322)
Assay type: biochemical
Run conditions: recombinant Topo II relaxation; compound at 10 μM; read-out: Percentage of inhibition of Topo II, 10 μM
Experimental readout: inhibition at 10 µM (%)

O=C(CN1CCN(c2cc3c(cc2F)c(=O)c(C(=O)O)cn3C2CC2)CC1)NN=C1C(=O)Nc2ccccc21 [Compound 8a]    77.4
O=C(CN1CCN(c2cc3c(cc2F)c(=O)c(C(=O)O)cn3C2CC2)CC1)NNCC(=O)c1ccc([N+](=O)[O-])cc1 [Compound 10c]    72.6
CC(=NNC(=O)CN1CCN(c2cc3c(cc2F)c(=O)c(C(=O)O)cn3C2CC2)CC1)c1ccc(Cl)cc1 [Compound 7b]    60.3
O=C1CC(=O)N(C(=O)CN2CCN(c3cc4c(cc3F)c(=O)c(C(=O)O)cn4C3CC3)CC2)N1 [Compound 6]    76.3
O=C(CN1CCN(c2cc3c(cc2F)c(=O)c(C(=O)O)cn3C2CC2)CC1)NNC(=O)Nc1ccc(Cl)c(C(F)(F)F)c1 [Compound 9a]    57
O=C(CN1CCN(c2cc3c(cc2F)c(=O)c(C(=O)O)cn3C2CC2)CC1)NN=C1CCCCC1 [Compound 7a]    55.9
